Please respond with reported Barnyardgrass plant response rating for every item in the list.
# Tested on: barnyardgrass
# measurement description: Test A pre-/postemergence greenhouse test
# Assay type: in vivo, Echinochloa crus-galli
# run parameters: Postemergence, 500 g ai/ha; 0 to 100 scale, 0 is no effect, 100 is complete control
Numbers only.

Query: Entry Cn1nc(C(F)(F)F)c(C[S+]([O-])c2cc(Cl)cc[n+]2[O-])c1Cl (racemic) has what Barnyardgrass plant response rating?
Result: 90

Would you mind listing Barnyardgrass plant response rating for each of the following compounds?
1. CCOc1ccc(S(=O)(=O)Cc2c(C(F)(F)F)nn(C)c2OC(F)F)[n+]([O-])c1
2. Cc1cc[n+]([O-])c([S+]([O-])Cc2c(C(F)(F)F)nn(C)c2OCC(F)(F)F)c1 (racemic)
3. CCCc1cc[n+]([O-])c(S(=O)(=O)Cc2c(C(F)(F)F)nn(C)c2OC(F)F)c1
4. Cn1nc(C(F)(F)F)c(C[S+]([O-])c2cc(Br)cc[n+]2[O-])c1Cl (racemic)
5. Cn1nc(C(F)(F)F)c(CS(=O)(=O)c2cccc[n+]2[O-])c1OC(F)F

Result:
60
90
80
80
80

Would you mind listing Barnyardgrass plant response rating for each of the following compounds?
1. Cc1cc[n+]([O-])c(S(=O)(=O)Cc2c(C(F)(F)F)nn(C)c2OC(C)C(F)(F)F)c1 (centres unmarked)
2. Cn1nc(C(F)(F)F)c(CS(=O)(=O)c2ccc(F)c[n+]2[O-])c1Cl
3. O=S(=O)(Cc1c(C(F)(F)F)nn(CC(F)(F)F)c1Cl)c1ccc(Cl)c[n+]1[O-]
4. Cn1nc(C(F)(F)F)c(CS(=O)(=O)c2ccc(Cl)c[n+]2[O-])c1OCC(F)F
5. CC(c1c(C(F)(F)F)nn(C)c1OC(F)F)S(=O)(=O)c1cccc[n+]1[O-] (centres unmarked)
6. Cn1nc(C(F)(F)F)c(C[S+]([O-])c2ccc(F)c[n+]2[O-])c1OCC(F)(F)F (centres unmarked)

Result:
90
80
70
80
80
90

Would you mind listing Barnyardgrass plant response rating for each of the following compounds?
1. Cn1nc(C(F)(F)C(F)(F)F)c(C[S+]([O-])c2cccc[n+]2[O-])c1OCC(F)(F)F (centres unmarked)
2. CC(C)c1cc[n+]([O-])c([S+]([O-])Cc2c(C(F)(F)F)nn(C)c2OCC(F)(F)F)c1 (centres unmarked)
3. CCc1cc[n+]([O-])c([S+]([O-])Cc2c(C(F)(F)F)nn(C)c2OC(F)F)c1 (centres unmarked)
4. Cn1nc(OC(F)F)c(C[S+]([O-])c2cccc[n+]2[O-])c1C(F)(F)F (centres unmarked)
5. Cn1nc(C(F)(F)C(F)(F)F)c(CS(=O)(=O)c2ccc(Cl)c[n+]2[O-])c1OCC(F)(F)F
6. Cn1nc(C(F)(F)F)c(C[S+]([O-])c2cc(Cl)cc[n+]2[O-])c1OCC(F)(F)F (centres unmarked)

Result:
90
90
90
80
60
80

Would you mind listing Barnyardgrass plant response rating for each of the following compounds?
1. Cn1nc(C(F)(F)F)c(CS(=O)(=O)c2cccc[n+]2[O-])c1OCC(F)F
2. Cc1cc[n+]([O-])c([S+]([O-])Cc2c(C(F)(F)F)nn(C)c2OC(F)F)c1 (centres unmarked)

Result:
1: 80; 2: 80

====

# System: giant foxtail
# measurement description: Test A pre-/postemergence greenhouse test
# Format: in vivo, Setaria faberi
# run parameters: Postemergence, 500 g ai/ha; 0 to 100 scale, 0 is no effect, 100 is complete control
reported endpoint: Foxtail, Giant plant response rating
Give bare numbers.

Query: Entry CCOc1ccc(S(=O)(=O)Cc2c(C(F)(F)F)nn(C)c2OC(F)F)[n+]([O-])c1 has what Foxtail, Giant plant response rating?
Result: 60

Would you mind listing Foxtail, Giant plant response rating for each of the following compounds?
1. Cn1nc(C(F)(F)F)c(C[S+]([O-])c2ccc(Cl)c[n+]2[O-])c1OCC(F)(F)F (racemic)
2. Cc1cc[n+]([O-])c(S(=O)(=O)C(Cl)c2c(C(F)(F)F)nn(C)c2OCC(F)(F)F)c1 (racemic)
3. Cn1nc(C(F)(F)F)c(CS(=O)(=O)c2cccc[n+]2[O-])c1OCC(F)(F)C(F)(F)F

Result:
1: 90; 2: 80; 3: 80

====

# System: corn
# measurement description: Test C pre-/postemergence test
# Type: in vivo, Zea mays
# run parameters: 62 g ai/ha, Preemergence; scale 0 to 100
reported endpoint: Corn plant response rating
Give bare numbers.

Worked examples, 3 compounds total:
Query: GET /values?readout=Corn plant response rating&system=corn&item= Cn1nc(C(F)(F)F)c(C[S+]([O-])c2cc(Br)cc[n+]2[O-])c1Cl (racemic)
Result: 10

Query: GET /values?readout=Corn plant response rating&system=corn&item= Cc1cc[n+]([O-])c(S(=O)(=O)Cc2c(C(F)(F)F)nn(C)c2OC(C)C(F)(F)F)c1 (stereo not shown)
Result: 0

Query: GET /values?readout=Corn plant response rating&system=corn&item= Cn1nc(C(F)(F)F)c(C[S+]([O-])c2ccc(Cl)c[n+]2[O-])c1Cl (racemic)
Result: 85

// moving on: another record for Corn plant response rating
Query: GET /values?readout=Corn plant response rating&system=corn&item= Cc1cc[n+]([O-])c([S+]([O-])Cc2c(C(F)(F)F)nn(C)c2Cl)c1 (racemic)
Result: 20

====

# System: wheat
# measurement description: Test A pre-/postemergence greenhouse test
# Format: in vivo, Triticum aestivum
# run parameters: Preemergence, 125 g ai/ha; 0 to 100 scale, 0 no effect, 100 complete control
Everything with Wheat plant response rating lower than 50 is not satisfied; everything else, including exactly 50, is satisfied.

Query: Determine whether this compound has Wheat plant response rating no lower than 50: Cn1nc(C(F)(F)C(F)(F)F)c(C[S+]([O-])c2ccc(Cl)c[n+]2[O-])c1OCC(F)(F)F (stereo not drawn) [Compound 92]
Result: satisfied

Query: Determine whether this compound has Wheat plant response rating no lower than 50: Cc1cc[n+]([O-])c(S(=O)(=O)Cc2c(C(F)(F)F)nn(CC(F)(F)F)c2Cl)c1 [Compound 49]
Result: not satisfied

Query: Determine whether this compound has Wheat plant response rating no lower than 50: Cc1cc[n+]([O-])c([S+]([O-])Cc2c(C(F)(F)F)nn(C)c2OCC(F)(F)F)c1 (racemic) [Compound 30]
Result: satisfied

Query: Determine whether this compound has Wheat plant response rating no lower than 50: CCc1cc[n+]([O-])c([S+]([O-])Cc2c(C(F)(F)F)nn(C)c2OCC(F)(F)F)c1 (stereo not drawn) [Compound 59]
Result: satisfied

Query: Determine whether this compound has Wheat plant response rating no lower than 50: Cn1nc(C(F)(F)F)c(CS(=O)(=O)c2ccc(F)c[n+]2[O-])c1Cl [Compound 53]
Result: not satisfied

Query: Determine whether this compound has Wheat plant response rating no lower than 50: Cn1nc(C(F)(F)F)c(C[S+]([O-])c2cccc[n+]2[O-])c1OCC(F)F (stereo not drawn) [Compound 75]
Result: satisfied

Query: Determine whether this compound has Wheat plant response rating no lower than 50: Cn1nc(C(F)(F)F)c(C[S+]([O-])c2cccc[n+]2[O-])c1OC(F)F (stereo not drawn) [Compound 3]
Result: satisfied

Query: Determine whether this compound has Wheat plant response rating no lower than 50: CC(c1c(C(F)(F)F)nn(C)c1OC(F)F)S(=O)(=O)c1cccc[n+]1[O-] (stereo not drawn) [Compound 5]
Result: satisfied

Query: Determine whether this compound has Wheat plant response rating no lower than 50: Cn1nc(C(F)(F)F)c(C(Cl)S(=O)(=O)c2cccc[n+]2[O-])c1OC(F)F (stereo not drawn) [Compound 51]
Result: not satisfied

Query: Determine whether this compound has Wheat plant response rating no lower than 50: Cn1nc(C(F)(F)F)c(C[S+]([O-])c2cccc[n+]2[O-])c1Cl (stereo not drawn) [Compound 8]
Result: satisfied

Query: Determine whether this compound has Wheat plant response rating no lower than 50: Cn1nc(C(F)(F)F)c(CS(=O)(=O)c2cc(C(C)(C)C)cc[n+]2[O-])c1OC(F)F [Compound 25]
Result: not satisfied

Query: Determine whether this compound has Wheat plant response rating no lower than 50: Cn1nc(C(F)(F)F)c(CS(=O)(=O)c2cc(C3CC3)cc[n+]2[O-])c1OC(F)F [Compound 118]
Result: not satisfied

Query: Determine whether this compound has Wheat plant response rating no lower than 50: CC(Oc1c(CS(=O)(=O)c2cccc[n+]2[O-])c(C(F)(F)F)nn1C)C(F)(F)F (stereo not drawn) [Compound 82]
Result: not satisfied
